# Tested on: Key Broadleaf Weed and Crop Species
# EXPERIMENT_NOTES: Post-emergent Test II herbicidal activity (Table 5)
# Format: in vivo
# MEASUREMENT_SETUP: post-emergence, 336 h; VIOTR: wild pansy (Viola tricolor); application rate 140 g ai/ha; 14 days after application; read-out: Visual Growth Reduction (%) 14 Days After Application, VIOTR
Property: pest or weed control at 140 g/ha; scope: individual molecules

Reference set, count: 2
• COC(=O)c1nc(-c2cccc(F)c2F)c(F)c(N)c1Cl [Compound 199] = 30 to 44%
• Nc1c(F)c(-c2ccc(Cl)c(F)c2)nc(C(=O)O)c1Cl [Compound 217] = 95 to 100%

// next entry
IN: // returns reported pest or weed control at 140 g/ha for input COC(=O)c1nc(-c2ccc(C(F)(F)F)c(F)c2F)nc(N)c1OC [Compound 64]
OUT: 60 to 74%

###

Entries and their measured pest or weed control at 140 g/ha follow.
# Tested on: Key Broadleaf Weed and Crop Species
# EXPERIMENT_NOTES: Post-emergent Test II herbicidal activity (Table 5)
# Type: in vivo
# MEASUREMENT_SETUP: post-emergence, 336 h; BRSNN: oilseed-rape, canola (Brassica napus); application rate 140 g ai/ha; 14 days after application; read-out: Visual Growth Reduction (%) 14 Days After Application, BRSNN

Take a look at these entries with their results.
- Cc1ccc(-c2nc(C(=O)O)c(Cl)c(N)c2F)c(F)c1F: 75 to 84%
- Nc1cc(-c2ccc(I)cc2)nc(C(=O)O)c1Cl: 95 to 100%
- C#Cc1ccc(-c2nc(C(=O)OC)c(Cl)c(N)c2F)cc1: 85 to 94%
- COC(=O)c1nc(-c2ccc(C)c(F)c2F)c(F)c(N)c1Cl: 85 to 94%
- COC(=O)c1nc(-c2ccccc2)c(F)c(N)c1Cl: 95 to 100%

IN: Return reported pest or weed control at 140 g/ha; argument: COC(=O)c1ccc(-c2nc(C(=O)OC)c(Cl)c(N)c2F)cc1
OUT: 0 to 29%

IN: Data request, read-out pest or weed control at 140 g/ha, for Nc1c(F)c(-c2ccc(OC(F)F)c(F)c2)nc(C(=O)O)c1Cl
OUT: 45 to 59%

IN: Field request: pest or weed control at 140 g/ha | item: COC(=O)c1nc(-c2ccccc2)nc(N)c1OC
OUT: 0 to 29%

IN: Report pest or weed control at 140 g/ha for COC(=O)c1nc(-c2ccc(I)cc2F)c(F)c(N)c1Cl please.
OUT: 0 to 29%

IN: What value of measured pest or weed control at 140 g/ha is listed for COC(=O)c1nc(-c2ccccc2F)c(F)c(N)c1Cl ?
OUT: 85 to 94%

IN: Find the recorded pest or weed control at 140 g/ha belonging to COC(=O)c1nc(-c2ccc(C(F)(F)F)c(F)c2F)nc(N)c1OC and report it.
OUT: 85 to 94%

IN: Which pest or weed control at 140 g/ha value is on record for COC(=O)c1nc(-c2ccc(I)c(F)c2)c(F)c(N)c1Cl ?
OUT: 95 to 100%

IN: Give the measured pest or weed control at 140 g/ha of COC(=O)c1nc(-c2ccc(Br)cc2)nc(N)c1OC .
OUT: 95 to 100%

IN: Can you share its pest or weed control at 140 g/ha? I mean this molecule: COc1c(N)nc(-c2ccc(Br)cc2)nc1C(=O)O
OUT: 95 to 100%

IN: Look up pest or weed control at 140 g/ha: COC(=O)c1nc(-c2ccc(I)cc2)cc(N)c1Cl
OUT: 75 to 84%

IN: Which pest or weed control at 140 g/ha value belongs to COC(=O)c1nc(-c2ccc(I)c(F)c2F)cc(N)c1Cl ?
OUT: 95 to 100%

IN: Request the reported pest or weed control at 140 g/ha associated with COC(=O)c1nc(-c2ccc(OC(F)F)cc2F)c(F)c(N)c1Cl
OUT: 0 to 29%

IN: Look up pest or weed control at 140 g/ha for this molecule: Nc1c(F)c(-c2ccc(C(F)(F)F)c(F)c2F)nc(C(=O)O)c1Cl
OUT: 95 to 100%

IN: # get_value(readout='pest or weed control at 140 g/ha', item= N#Cc1ccc(-c2nc(C(=O)O)c(Cl)c(N)c2F)cc1F )
OUT: 85 to 94%

IN: Which measured pest or weed control at 140 g/ha value corresponds to COC(=O)c1nc(-c2ccc(C#N)cc2)c(F)c(N)c1Cl ?
OUT: 0 to 29%

###

# Tested on: Key Grass and Sedge Weeds as well as Grass Crops
# EXPERIMENT_NOTES: Post-emergent Test II herbicidal activity (Table 6)
# Assay type: in vivo
# MEASUREMENT_SETUP: post-emergence, 336 h, ZEAMX: maize, corn (Zea mays), application rate 70 g ai/ha, read-out: Visual Growth Reduction (%) 14 Days After Application, ZEAMX
PROPERTY_MEASURED: pest or weed control at 70 g/ha

Answered examples (5):
• COC(=O)c1nc(-c2ccc(C#N)cc2)c(C)c(N)c1Cl = 0 to 29%
• COC(=O)c1nc(-c2cc(F)c(C#N)cc2F)nc(N)c1OC = 0 to 29%
• C=Cc1c(N)nc(-c2ccc(F)c(F)c2F)nc1C(=O)OC = 60 to 74%
• COC(=O)c1nc(-c2ccc(I)c(F)c2)cc(N)c1Cl = 0 to 29%
• Nc1c(Cl)c(C(=O)O)nc(-c2ccc(I)c(F)c2)c1Cl = 75 to 84%

IN: Request - read-out pest or weed control at 70 g/ha | tested on Key Grass and Sedge Weeds as well as Grass Crops | molecule COC(=O)c1nc(-c2cccc(F)c2)c(F)c(N)c1Cl
OUT: 0 to 29%

###

# Tested on: test plant species in Direct Seeded Rice
# EXPERIMENT_NOTES: Postemergence herbicidal activity in direct seeded rice (Table 13)
# Format: in vivo
# MEASUREMENT_SETUP: ECHSS: barnyardgrass (Echinochloa crus-galli), junglerice (Echinochloa colonum); probit analysis
PROPERTY_MEASURED: GR80 ECHSS (g ai/ha)
Kindly answer with a numeric value in g ai/ha, unit omitted.

• COC(=O)c1nc(-c2ccc(I)cc2)c(Cl)c(N)c1Cl = 84
• Nc1cc(-c2ccc(Br)cc2F)nc(C(=O)O)c1Cl = 1
• Nc1cc(-c2ccc(I)cc2F)nc(C(=O)O)c1Cl = 6
• COC(=O)c1nc(-c2ccc(Cl)c(F)c2)c(F)c(N)c1Cl = 15

In the following, a different compound is considered.
IN: Bench note: what GR80 ECHSS did COC(=O)c1nc(-c2ccc(Br)c(F)c2F)nc(N)c1OC show?
OUT: 47

###

# Tested on: Key Grass and Sedge Weeds as well as Grass Crops
# EXPERIMENT_NOTES: Post-emergent Test II herbicidal activity (Table 6)
# Type: in vivo
# MEASUREMENT_SETUP: post-emergence, 336 h, CYPES: yellow nutsedge (Cyperus esculentus), 140 g ai/ha, read-out: Visual Growth Reduction (%) 14 Days After Application, CYPES
pest or weed control at 140 g/ha values for the compounds below.

// known answers, use as guide
* Nc1c(F)c(-c2ccc(Br)c(F)c2)nc(C(=O)O)c1Cl | 95 to 100%
* COC(=O)c1nc(-c2ccc(I)cc2)nc(N)c1OC | 95 to 100%
* C#Cc1ccc(-c2nc(C(=O)OC)c(Cl)c(N)c2F)c(F)c1 | 45 to 59%
* COC(=O)c1nc(-c2ccc(I)cc2)c(F)c(N)c1Cl | 95 to 100%
* COC(=O)c1nc(-c2ccc(C)c(F)c2F)c(F)c(N)c1Cl | 60 to 74%

IN: Would you kindly share the measured pest or weed control at 140 g/ha for COC(=O)c1nc(-c2ccc(I)cc2)cc(N)c1Cl ?
OUT: 45 to 59%

IN: pest or weed control at 140 g/ha lookup needed for Nc1c(F)c(-c2ccccc2)nc(C(=O)O)c1Cl , thanks.
OUT: 45 to 59%

IN: So what's the measured pest or weed control at 140 g/ha for this one? COC(=O)c1nc(-c2ccc(OC(F)F)cc2)c(F)c(N)c1Cl
OUT: 85 to 94%

IN: Sample Nc1c(F)c(-c2ccc(OC(F)F)cc2)nc(C(=O)O)c1Cl — what was its pest or weed control at 140 g/ha?
OUT: 85 to 94%

###

# System: Key Broadleaf Weed and Crop Species
# EXPERIMENT_NOTES: Post-emergent Test II herbicidal activity (Table 5)
# Assay type: in vivo
# MEASUREMENT_SETUP: post-emergence, 336 h; BRSNN: oilseed-rape, canola (Brassica napus); 70 g ai/ha; post-emergent; 14 days after application; read-out: Visual Growth Reduction (%) 14 Days After Application BRSNN
PROPERTY_MEASURED: pest or weed control at 70 g/ha

• COC(=O)c1nc(-c2cc(F)c(Br)cc2F)cc(N)c1Cl = 85 to 94%

IN: Fill in the blank: the reported pest or weed control at 70 g/ha of COC(=O)c1nc(-c2ccc(C#N)cc2F)c(F)c(N)c1Cl is ____.
OUT: 0 to 29%

IN: Suppose we examine the compound COC(=O)c1nc(-c2cc(F)c(I)cc2F)c(F)c(N)c1Cl ; what pest or weed control at 70 g/ha value has been reported?
OUT: 95 to 100%

IN: Form field: reported pest or weed control at 70 g/ha of COC(=O)c1nc(-c2cc(F)c(C#N)cc2F)nc(N)c1OC
OUT: 0 to 29%

IN: Param item = COC(=O)c1nc(-c2ccc(I)c(F)c2)c(Cl)c(N)c1Cl ; retrieve measured pest or weed control at 70 g/ha.
OUT: 85 to 94%

IN: Any idea what its pest or weed control at 70 g/ha is? The compound is COC(=O)c1nc(-c2c(F)cc(I)c(F)c2F)cc(N)c1Cl
OUT: 95 to 100%

IN: Which pest or weed control at 70 g/ha is reported for this compound? Nc1c(Cl)c(C(=O)O)nc(-c2ccc(Br)c(F)c2)c1Cl
OUT: 95 to 100%

IN: Need pest or weed control at 70 g/ha of C=Cc1c(N)nc(-c2ccc(F)c(F)c2F)nc1C(=O)OC , thanks.
OUT: 95 to 100%

IN: State the recorded pest or weed control at 70 g/ha for this entry: C=Cc1c(C(=O)O)nc(-c2ccc(I)cc2)c(F)c1N
OUT: 95 to 100%

Cited source for all entries: patent US9113629B2
